target: human Nav1.7 (Homo sapiens, UniProt Q15858, W1161R); format: cell-based; details: read-out: Nav1.7 IC50
measurement_label: IC50 (µM)
Lab book: enter the figure in µM, no units written.

Answered examples (2):
[
  {
    "monomer_sequence": "GPCCNCSSKWCRDHSRCCGSAPAPAPAPAPAPAPAPAPAPGSQCQKWMQTCDAERKCCEGFVCRLWCKKKLW [NV1D3262]",
    "measured_target": "human Nav1.7 (Homo sapiens, UniProt Q15858, W1161R)",
    "value_units": "µM",
    "IC50": 0.0892
  },
  {
    "monomer_sequence": "GPQCQKWMQTCDRERKCCEGFVCTLWCRKKLWGSAPAPAPAPAPAPAPAPAPAPGSCCNCSSKWCRDHSRCC [NV1D3797]",
    "measured_target": "human Nav1.7 (Homo sapiens, UniProt Q15858, W1161R)",
    "value_units": "µM",
    "IC50": 0.0911
  }
]

Looking for the measured IC50 of GPQCQKWMQTCDRERKCCEGFVCTLWCRKKLWGSGGGGSAPAPAPAPAPAPAPAPAPAPGGGGSGSCCNCSSKWCRDHSRCCGR [NV1D3828] , can you help?
0.0875

Looking for the measured IC50 of GPQCQKWMQTCDAERKCCEGFVCRLWCKKKLWGSAPAPAPAPAPAPAPAPAPAPGSCCNCSSKWCRDHSRCCGR [NV1D3259] , can you help?
0.0549
